- system-tested: T1, his-tagged cTfR1 (Acro Biosystems p/n TFR-C524a) (cynomolgus monkey, UniProt H9EXL1 89-760 (rhesus entry))
- T1 construct: Bought reagent of the SPR assay
- T1 sequence (chain, as listed by the source): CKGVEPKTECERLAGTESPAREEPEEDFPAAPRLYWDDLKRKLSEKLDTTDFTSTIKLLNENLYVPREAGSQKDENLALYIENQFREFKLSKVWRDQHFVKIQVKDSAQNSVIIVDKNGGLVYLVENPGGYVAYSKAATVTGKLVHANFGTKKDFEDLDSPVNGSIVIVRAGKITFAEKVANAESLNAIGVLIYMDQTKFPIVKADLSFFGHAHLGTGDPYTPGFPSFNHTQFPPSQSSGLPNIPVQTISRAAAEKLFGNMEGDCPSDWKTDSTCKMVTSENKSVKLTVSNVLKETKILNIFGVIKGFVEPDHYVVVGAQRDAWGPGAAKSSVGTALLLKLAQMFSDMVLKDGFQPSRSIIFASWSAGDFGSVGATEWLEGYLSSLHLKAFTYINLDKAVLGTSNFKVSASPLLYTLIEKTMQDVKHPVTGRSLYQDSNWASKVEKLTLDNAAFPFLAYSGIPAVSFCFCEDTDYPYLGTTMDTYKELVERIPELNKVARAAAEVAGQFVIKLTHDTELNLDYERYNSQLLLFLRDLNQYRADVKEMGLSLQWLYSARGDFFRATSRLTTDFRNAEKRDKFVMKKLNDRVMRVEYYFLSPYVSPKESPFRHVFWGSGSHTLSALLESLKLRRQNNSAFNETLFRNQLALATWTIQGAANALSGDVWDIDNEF
- assay-info: SPR, Biacore X100, His-tagged TfR1 captured by anti-His
pKd reference
To interpret pKd, take it as minus log10 of a concentration measured in moles per litre.

Solved cases (2 shown):
binder	parameter	reading
Fab0063 (Fab, V domains shown) VH: EVQLVESGGGLVQPGGSLRLSCATSGYTFTSYWMHWVRQAPGKGLEWVAEINPTNGRVNYIEKFKSRITLSVDKSKSTVYLQMNSLRAEDTAVYYCARGTRAYHYWGQGTLVTVSS VL: DIQLTQSPSSLSASVGDRVTITCRASDGLYSNLAWYQQKPGKAPKLLIYDATRLASGVPSRFSGSGSGTDYTLTISSLQPEDFATYYCQHFWGTPLTFGQGTKVEIKR	pKd	8.56
Fab0062 (Fab, V domains shown) VH: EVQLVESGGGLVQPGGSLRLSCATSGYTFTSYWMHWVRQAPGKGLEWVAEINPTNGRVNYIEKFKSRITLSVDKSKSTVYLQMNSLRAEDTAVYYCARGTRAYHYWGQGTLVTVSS VL: DIQLTQSPSSLSASVGDRVTITCRASDGLYSNLAWYQQKPGKAPKLLIYDAFNLASGVPSRFSGSGSGTDYTLTISSLQPEDFATYYCQHFWGTPLTFGQGTKVEIKR	pKd	8.49

Data request: Fill in the blank: the reported pKd of Fab0060 (Fab, V domains shown) VH: EVQLVESGGGLVQPGGSLRLSCATSGYTFTSYWVHWVRQAPGKGLEWVAEINPTNGRTNYIEKFKSRITLSVDKSKSTVYLQMNSLRAEDTAVYYCARGTRAYHYWGQGTLVTVSS VL: DIQLTQSPSSLSASVGDRVTITCRASDGLYSNLAWYQQKPGKAPKLLIYDATKLASGVPSRFSGSGSGTDYTLTISSLQPEDFATYYCQHFWGTPLTFGQGTKVEIKR is ____.
Data returned: 8.57

All figures here come from patent US20260191981A1.
